Task for the reader: assign each of the following molecules its reported pIC50.
Test system: mammary gland breast cancer (MCF-7)
Experiment: SRB cytotoxicity assay, MCF-7
Type: cell-based
Settings: Homo sapiens, MCF7, MCF-7 cells
Numbers only, as −log10 of the molar value.

Illustrative cases are given below, each with its answer.
• CC(C)C(NC(=O)c1ccc(Nc2ncnc3c2cnn3-c2ccccc2)cc1)C(=O)O (stereo not shown) [Compound 7c] = 5.18
• COc1cccc2c1C(=O)c1c(O)c3c(c(O)c1C2=O)C[C@@](O)(C(=O)CO)C[C@@H]3O[C@H]1C[C@H](N)[C@H](O)[C@H](C)O1 [Doxorubicin, reference compound] = 5.37
• CC(NC(=O)c1ccc(Nc2ncnc3c2cnn3-c2ccccc2)cc1)C(=O)O (stereo not shown) [Compound 7b] = 4.45
• O=C(NC(Cc1c[nH]c2ccccc12)C(=O)O)c1ccc(Nc2ncnc3c2cnn3-c2ccccc2)cc1 (stereo not shown) [Compound 7k] = 4.54
• O=C(O)CNC(=O)c1ccc(Nc2ncnc3c2cnn3-c2ccccc2)cc1 [Compound 7a] = 4.82

// input: 2 molecules below; output: pIC50 for each
1. O=C(NC(Cc1c[nH]cn1)C(=O)O)c1ccc(Nc2ncnc3c2cnn3-c2ccccc2)cc1 (stereo not shown) [Compound 7i]
2. O=C(O)CCC(NC(=O)c1ccc(Nc2ncnc3c2cnn3-c2ccccc2)cc1)C(=O)O (stereo not shown) [Compound 7e]

Ans.
1. 4.88
2. 4.92
